# System: KRAS patient-derived spheroids with HUVEC/MSC, viability
# experimentDescription: Anticancer human tumor 323965-272-R-J2-PDC patient-derived pancreatic carcinoma cell line growth inhibition [KRAS2]
# conditions: second compound 0.1 µM; first compound 1 µM; stronger effect = lower value
Recorded measurements of viability, T/C, one per entry
experimentalReadout: viability, T/C (%)

- CCNC(=O)CC1N=C(c2ccc(Cl)cc2)c2cc(OC)ccc2-n2c(C)nnc21 (stereo not given) + COc1cc2nc(C)nc(NC(C)c3cc(N)cc(C(F)(F)F)c3)c2cc1OC1CCOC1: 34.2
- CC1COCCN1c1cc(-c2ccnn2C)c2ccnc(-c3ccn[nH]3)c2n1 (stereo not given) + CC1OCC2(CCN(c3cnc(Sc4ccnc(N)c4Cl)c(N)n3)CC2)C1N: 13.5
- O=C(c1cc(Cc2n[nH]c(=O)c3ccccc23)ccc1F)N1CCN(C(=O)C2CC2)CC1 + COc1cc2nc(C)nc(NC(C)c3cc(N)cc(C(F)(F)F)c3)c2cc1OC1CCOC1: 98.8
- CC(=O)OC12COC1CC(O)C1(C)C(=O)C(O)C3=C(C)C(OC(=O)C(O)C(NC(=O)OC(C)(C)C)c4ccccc4)CC(O)(C(OC(=O)c4ccccc4)C21)C3(C)C (stereo not given) + CC1OCC2(CCN(c3cnc(Sc4ccnc(N)c4Cl)c(N)n3)CC2)C1N: 27
- CCNC(=O)CC1N=C(c2ccc(Cl)cc2)c2cc(OC)ccc2-n2c(C)nnc21 (stereo not given) + C=CC(=O)N1CCN(c2nc(=O)n(-c3c(C)ccnc3C(C)C)c3nc(-c4c(O)cccc4F)c(F)cc23)C(C)C1: 30.9

###

# Test system: KRAS patient-derived spheroids with HUVEC/MSC, viability
# experimentDescription: Anticancer human tumor 323965-272-R-J2-PDC cell line growth inhibition [KRAS2];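 further: spheroids exposed to agents for 7 days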;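 on viability, T/C: 100% = DMSO vehicle control viability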
# conditions: second compound 3.16 µM; first compound 0.1 µM; stronger effect = lower value
Recorded measurements of viability, T/C, one per entry
experimentalReadout: viability, T/C (%)

• Cn1nccc1Nc1nccc(-c2cc3c(s2)C(C)(C)N(CCN2CCOCC2)C3=O)n1 + COc1cc2nc(C)nc(NC(C)c3cc(N)cc(C(F)(F)F)c3)c2cc1OC1CCOC1 = 68.1
• CC(C)n1nc(-c2ccc3oc(N)nc3c2)c2c(N)ncnc21 + C=CC(=O)N1CCN(c2nc(=O)n(-c3c(C)ccnc3C(C)C)c3nc(-c4c(O)cccc4F)c(F)cc23)C(C)C1 = 12.3
• COc1cc(Nc2ncc3c(n2)-c2ccc(Cl)cc2C(c2c(F)cccc2OC)=NC3)ccc1C(=O)O + CC1OCC2(CCN(c3cnc(Sc4ccnc(N)c4Cl)c(N)n3)CC2)C1N = 22.2
• CC1(C)CCC(CN2CCN(c3ccc(C(=O)NS(=O)(=O)c4ccc(NCC5CCOCC5)c([N+](=O)[O-])c4)c(Oc4cnc5[nH]ccc5c4)c3)CC2)=C(c2ccc(Cl)cc2)C1 + COc1cc2nc(C)nc(NC(C)c3cc(N)cc(C(F)(F)F)c3)c2cc1OC1CCOC1 = 80.6
• COC(=O)c1ccc2c(C(=Nc3ccc(N(C)C(=O)CN4CCN(C)CC4)cc3)c3ccccc3)c(O)[nH]c2c1 + CC1OCC2(CCN(c3cnc(Sc4ccnc(N)c4Cl)c(N)n3)CC2)C1N = 38.7

###

# Test system: KRAS patient-derived spheroids with HUVEC/MSC, viability
# experimentDescription: Anticancer human tumor 323965-272-R-J2-PDC cell line growth inhibition [KRAS2];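 further: spheroids exposed to agents for 7 days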
# conditions: curve of first compound; second compound 1 µM
experimentalReadout: IC50

- CC(C)n1nc(-c2ccc3oc(N)nc3c2)c2c(N)ncnc21 + C=CC(=O)N1CCN(c2nc(OCC3CCCN3C)nc3c2CCN(c2cccc4cccc(C)c24)C3)CC1CC#N: < 0.000316 µM
- O=C(c1cc(Cc2n[nH]c(=O)c3ccccc23)ccc1F)N1CCN(C(=O)C2CC2)CC1 + COc1cc2nc(C)nc(NC(C)c3cc(N)cc(C(F)(F)F)c3)c2cc1OC1CCOC1: > 10 µM
- O=C(c1cc(Cc2n[nH]c(=O)c3ccccc23)ccc1F)N1CCN(C(=O)C2CC2)CC1 + CNCc1ccccc1-c1csc(C(C)Nc2nc(C)nc3cc(OC)c(OC)cc23)c1: > 10 µM
